B1: TRAF3IP2 (parent)
chain: PRPPSNPPARGTLKTSNLPEELRK

Variants of: B1
assay-overview: protein stability index of a GFP-peptide fusion (GPS, HEK-293T) (PSI 1-6); higher = more stable;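 further: lentivirally expressed fusions sorted by FACS into six bins by GFP to DsRed ratio, PSI derived from sequencing read proportions per bin multiplied by bin number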
experimental-conditions: c terminus: a fixed tail appended
Catalogue of protein stability index readings, one per entry.
Answer as a number with no unit attached.

Examples with answers:
response.value for `PRPPGNPPARGTLKTSNLPEELRK` (field: protein stability index) = 4.89

response.value for `PRPPSNPPARGTWKTSNLPEELRK` (field: protein stability index) = 4.44

response.value for `PRPPSNPPARGTLKTSNLPEELRG` (field: protein stability index) = 4.05

response.value for `PRPCSNPPARGTLKTSNLPEELRK` (field: protein stability index) = 4.84

response.value for `PRPPSNPPARGTLTTSNLPEELRK` (field: protein stability index) = 5.09

response.value for `TRPPSNPPARGTLKTSNLPEELRK` (field: protein stability index) = 4.88

response.value for `PRTPSNPPARGTLKTSNLPEELRK` (field: protein stability index) = 4.9

response.value for `PRPPSNPVARGTLKTSNLPEELRK` (field: protein stability index) = 5.04

response.value for `PRPPHNPPARGTLKTSNLPEELRK` (field: protein stability index) = 4.38

response.value for `PRPPSNPPARGTLKTSNLPETLRK` (field: protein stability index) = 4.46

New cases:
response.value for `PKPPSNPPARGTLKTSNLPEELRK` (field: protein stability index) = 4.56

response.value for `PRPPSNPPARDTLKTSNLPEELRK` (field: protein stability index) = 4.86

response.value for `PRPPSNPPARGTLKTSNIPEELRK` (field: protein stability index) = 4.38

response.value for `PRPPSNPPARGILKTSNLPEELRK` (field: protein stability index) = 4.54

response.value for `PRPPSNPPARGTEKTSNLPEELRK` (field: protein stability index) = 5.04

response.value for `PRPPSNPPARGTLKTKNLPEELRK` (field: protein stability index) = 4.74

response.value for `PRPPSNPPARGTLKTSNLPEELVK` (field: protein stability index) = 4.13

response.value for `PRPPSEPPARGTLKTSNLPEELRK` (field: protein stability index) = 5.15

response.value for `PRPPSNPPARGTLKTSNLPEEPRK` (field: protein stability index) = 5.15

response.value for `PRPPSNPPARGTLKTANLPEELRK` (field: protein stability index) = 4.41

This collection of values is drawn from the supplement of paper PMC10567573.
